- Test system: Rattus norvegicus
- procedure summary: Evaluated for blood pressure lowering activity in the conscious spontaneously hypertensive rats (SHR) (time to peak (h)) at a dose of 5 mg/kg
- Assay type: functional
measured metric: Time

COc1ccccc1N1CCN(CCn2c(=O)c3cscc3n(C(=O)C(C)C)c2=O)CC1 = 0.5 h
COc1ccccc1N1CCN(CCn2c(=O)c3sccc3n(C(C)=O)c2=O)CC1 = 0.5 h
COc1ccccc1N1CCN(CCn2c(=O)c3cscc3n(C(=O)c3ccc(Cl)cc3)c2=O)CC1 = 1 h
CCCCCC(=O)n1c(=O)n(CCN2CCN(c3ccccc3OC)CC2)c(=O)c2cscc21 = 0.5 h
COc1ccccc1N1CCN(CCn2c(=O)c3cscc3n(C(=O)c3ccccc3)c2=O)CC1 = 1 h
COc1ccccc1N1CCN(CCn2c(=O)c3cscc3n(C(=O)C(C)(C)C)c2=O)CC1 = 0.5 h

###

- System: Rattus norvegicus
- procedure summary: Evaluated for blood pressure lowering activity in spontaneously hypertensive rats (maximum change of systolic blood pressure (SBP)) at a dose of 1.25 mg/kg
- Format: functional, Artery
Delta SBP overview
measured metric: Delta SBP (mmHg)

COc1ccccc1N1CCN(CCn2c(=O)c3sccc3n(C)c2=O)CC1 = -56
COc1ccccc1N1CCN(CCn2c(=O)[nH]c3ccsc3c2=O)CC1 = -74
Cc1ccccc1N1CCN(CCn2c(=O)[nH]c3ccsc3c2=O)CC1 = -33
O=c1[nH]c2ccsc2c(=O)n1CCN1CCN(c2ccccc2Cl)CC1 = -30

###

- Tested on: Rattus norvegicus
- procedure summary: Evaluated for blood pressure lowering activity in spontaneously hypertensive rats (maximum change of systolic blood pressure (SBP)) at a dose of 1.25 mg/kg
- Assay type: functional, Artery
Delta SBP overview
measured metric: Delta SBP (mmHg)

COc1ccccc1N1CCN(CCn2c(=O)c3cscc3n(C)c2=O)CC1 = -67
COc1ccccc1N1CCN(CCn2c(=O)[nH]c3ccccc3c2=O)CC1 = -54
COc1cc2nc(N3CCN(C(=O)c4ccco4)CC3)nc(N)c2cc1OC = -60
COc1ccccc1N1CCN(CCn2c(=O)c3ccsc3n(C)c2=O)CC1 = -28
COc1ccccc1N1CCN(CCn2c(=O)[nH]c3sccc3c2=O)CC1 = -50
COc1ccccc1N1CCN(CCn2c(=O)[nH]c3sc(Cl)cc3c2=O)CC1 = -25
O=c1[nH]c2cscc2c(=O)n1CCN1CCN(c2ccccc2Cl)CC1 = -51
Cc1ccccc1N1CCN(CCn2c(=O)[nH]c3cscc3c2=O)CC1 = -36
COc1ccccc1N1CCN(CCn2c(=O)[nH]c3csc(C)c3c2=O)CC1.Cl = -66
CCCCn1c(=O)n(CCN2CCN(c3ccccc3OC)CC2)c(=O)c2sccc21 = -28

Sourced from ChEMBL document CHEMBL1124204
